# System: HepG2
# Method Notes: Antiproliferative activity against human HepG2 cells assessed as inhibition of cell growth incubated for 24 to 72 hrs by CCK8 assay
# Assay type: functional, cell-based
Kindly state IC50 for each of the entries shown.
Numbers only, in µM.

CCCCCCCCCCCC(=O)O[C@@]12C[C@@H](C)[C@]34C=C(C)[C@H](OC(=O)c5ccc(F)cc5)[C@@]3(O)[C@H](O)C(CO)=C[C@H](C4=O)[C@@H]1C2(C)C ... 21.1

Query compound follows.
Read off the recorded IC50 for `CCCCCCCCCCCC(=O)O[C@@]12C[C@@H](C)[C@]34C=C(C)[C@H](OC(=O)N5CCCC5)[C@@]3(O)[C@H](O)C(CO)=C[C@H](C4=O)[C@@H]1C2(C)C`
21.1

* * *

# System: NCI-H460
# Method Notes: Antiproliferative activity against human NCI-H460 cells assessed as inhibition of cell growth incubated for 24 to 72 hrs by CCK8 assay
# Assay type: functional, cell-based
For each of the molecules below, state its IC50.

In the examples that follow, each entry is paired with its recorded IC50.
CCCCCCCCCCCC(=O)O[C@@]12C[C@@H](C)[C@]34C=C(C)[C@H](O)[C@@]3(O)[C@H](O)C(COC(=O)c3ccc(Br)cc3)=C[C@H](C4=O)[C@@H]1C2(C)C ... > 50 µM
C/C=C(/C)C(=O)O[C@H]1C(C)=C[C@]23C(=O)[C@@H](C=C(CO)[C@@H](O)[C@]12O)[C@H]1[C@@H](C[C@H]3C)C1(C)C [INGENOL MEBUTATE] ... > 50 µM

Next:
In one line, give reported IC50 of the entry `CCCCCCCCCCCC(=O)O[C@@]12C[C@@H](C)[C@]34C=C(C)[C@H](OC(=O)c5ccc(Br)cc5)[C@@]3(O)[C@H](O)C(COC(=O)c3ccc(Br)cc3)=C[C@H](C4=O)[C@@H]1C2(C)C` .
> 50 µM

* * *

Assign pIC50 to each entry below.
# System: HepG2
# Method Notes: Antiproliferative activity against human HepG2 cells assessed as inhibition of cell growth incubated for 24 to 72 hrs by CCK8 assay
# Assay type: functional, cell-based
Give bare numbers, as −log10 of the molar value.

Reference set, count: 5
CCCCCCCCCCCC(=O)O[C@@]12C[C@@H](C)[C@]34C=C(C)[C@H](OC(=O)NC5CC5)[C@@]3(O)[C@H](O)C(CO)=C[C@H](C4=O)[C@@H]1C2(C)C ... 4.90
CCCCCCCCCCCC(=O)O[C@@]12C[C@@H](C)[C@]34C=C(C)[C@H](OCCC)[C@@]3(O)[C@H](O)C(CO)=C[C@H](C4=O)[C@@H]1C2(C)C ... 4.90
CCCCCCCCCCCC(=O)O[C@@]12C[C@@H](C)[C@]34C=C(C)[C@H](OC(=O)NCCCC)[C@@]3(O)[C@H](O)C(CO)=C[C@H](C4=O)[C@@H]1C2(C)C ... 4.99
CCCCCCCCCCCC(=O)O[C@@]12C[C@@H](C)[C@]34C=C(C)[C@H](OC(=O)C5CCCCC5)[C@@]3(O)[C@H](O)C(CO)=C[C@H](C4=O)[C@@H]1C2(C)C ... 4.87
CCCCCCCCCCCC(=O)O[C@@]12C[C@@H](C)[C@]34C=C(C)[C@H](OC(=O)NC5CCCC5)[C@@]3(O)[C@H](O)C(CO)=C[C@H](C4=O)[C@@H]1C2(C)C ... 5.06

Attention now turns to another entry.
Tell me its pIC50 given `CCCCCCCCCCCC(=O)O[C@@]12C[C@@H](C)[C@]34C=C(C)[C@H](OC(=O)c5ccc([N+](=O)[O-])cc5)[C@@]3(O)[C@H](O)C(CO)=C[C@H](C4=O)[C@@H]1C2(C)C` as the entry.
4.92
